Ref: patent US10457703B2

- targetDesc: human FXR (NR1H4) (Homo sapiens (Human))
- methodNotes: Human FXR (NR1H4) Assay (Gal4 promoter driven luciferase reporter, Indigo Bioscience kit)
- Assay type: cell-based
- measurementParameters: read-out: Efficacy (%)
Values of Emax strictly less than 300% map to y, and values of at least 300% map to n.

- smilesCode: "CC[C@H]1[C@@H](O)[C@@H]2[C@H](CC[C@]3(C)[C@@H]([C@H](C)CCOC(=O)N4CCC(C)(CO)CC4)CC[C@@H]23)[C@@]2(C)CC[C@@H](O)C[C@@H]12"
  groupLabel: "n"
- smilesCode: "CC[C@H]1[C@@H](O)[C@@H]2[C@H](CC[C@]3(C)[C@@H]([C@H](C)COC(=O)NS(=O)(=O)c4cnc5ccccc5c4)CC[C@@H]23)[C@@]2(C)CC[C@@H](O)C[C@@H]12"
  groupLabel: "y"
- smilesCode: "CC[C@H]1[C@@H](O)[C@@H]2[C@H](CC[C@]3(C)[C@@H]([C@H](C)COC(=O)NC4CC4)CC[C@@H]23)[C@@]2(C)CC[C@@H](O)C[C@@H]12"
  groupLabel: "y"
- smilesCode: "CC[C@H]1[C@@H](O)[C@@H]2[C@H](CC[C@]3(C)[C@@H]([C@H](C)COC(=O)NS(=O)(=O)c4ccc(N5CCCCCC5)cc4)CC[C@@H]23)[C@@]2(C)CC[C@@H](O)C[C@@H]12"
  groupLabel: "y"

With those in mind, consider the next compound.
A record lists CC[C@H]1[C@@H](O)[C@@H]2[C@H](CC[C@]3(C)[C@@H]([C@H](C)CCOC(=O)NS(=O)(=O)c4ccc(OC)c(OC)c4)CC[C@@H]23)[C@@]2(C)CC[C@@H](O)C[C@@H]12 . Is its Emax below 300%?
y

====

- targetDesc: human FXR (NR1H4) (Homo sapiens (Human), UniProt Q96RI1)
- Sequence (Q96RI1 whole entry, the tested form may be a part): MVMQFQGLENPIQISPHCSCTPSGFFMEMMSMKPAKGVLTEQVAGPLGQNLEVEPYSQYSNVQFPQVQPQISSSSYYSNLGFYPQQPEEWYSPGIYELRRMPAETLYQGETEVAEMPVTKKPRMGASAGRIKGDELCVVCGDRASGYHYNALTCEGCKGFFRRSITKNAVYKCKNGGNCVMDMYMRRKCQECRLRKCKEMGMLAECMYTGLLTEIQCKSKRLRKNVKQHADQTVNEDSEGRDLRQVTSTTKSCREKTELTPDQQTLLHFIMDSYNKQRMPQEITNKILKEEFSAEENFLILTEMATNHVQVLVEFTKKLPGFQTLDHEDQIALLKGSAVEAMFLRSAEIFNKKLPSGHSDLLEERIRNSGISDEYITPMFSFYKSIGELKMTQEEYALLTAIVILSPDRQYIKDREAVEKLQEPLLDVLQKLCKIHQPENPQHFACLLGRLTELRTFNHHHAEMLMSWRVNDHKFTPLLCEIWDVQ
- methodNotes: Human FXR (NR1H4) Assay (Gal4 promoter driven luciferase reporter, Indigo Bioscience kit)
- measurementParameters: Human FXR (NR1H4) Assay, potency ranges
- Procedure: ASSAYS Human FXR (NR1H4) Assay Determination of a ligand mediated Gal4 promoter driven transactivation to quantify ligand binding mediated activation of FXR. […] The principle application of this reporter assay system is to quantify functional activity of human FXR. […] Luminescence intensity of the reaction is quantified using a plate-reading luminometer, Envision. […] Cells were incubated for additional 22 hours before luciferase activities were measured. […] Read time may be 0.5 second (500 mSec) per well.
I'd be grateful if you could share measured EC50 for these entries.

The cases that follow already have their EC50 on record.
- smilesCode: "CC[C@H]1[C@@H](O)[C@@H]2[C@H](CC[C@]3(C)[C@@H]([C@H](C)COC(=O)NS(=O)(=O)c4ccc(N5CCC5)cc4)CC[C@@H]23)[C@@]2(C)CC[C@@H](O)C[C@@H]12"
  targetDesc: "human FXR (NR1H4) (Homo sapiens (Human), UniProt Q96RI1)"
  val: "< 0.1 µM"
- smilesCode: "CC[C@H]1[C@@H](O)[C@@H]2[C@H](CC[C@]3(C)[C@@H]([C@H](C)COC(=O)NS(=O)(=O)N4CCCC4)CC[C@@H]23)[C@@]2(C)CC[C@@H](O)C[C@@H]12"
  targetDesc: "human FXR (NR1H4) (Homo sapiens (Human), UniProt Q96RI1)"
  val: "0.1 to 1 µM"
- smilesCode: "CC[C@H]1[C@@H](O)[C@@H]2[C@H](CC[C@]3(C)[C@@H]([C@H](C)CCOC(=O)NS(=O)(=O)c4nccs4)CC[C@@H]23)[C@@]2(C)CC[C@@H](O)C[C@@H]12"
  targetDesc: "human FXR (NR1H4) (Homo sapiens (Human), UniProt Q96RI1)"
  val: "1 to 10 µM"

Give measured EC50 for every item shown.
1. CC[C@H]1[C@@H](O)[C@@H]2[C@H](CC[C@]3(C)[C@@H]([C@H](C)CCCOC(=O)NS(=O)(=O)N(C)C)CC[C@@H]23)[C@@]2(C)CC[C@@H](O)C[C@@H]12
2. CC[C@H]1[C@@H](O)[C@@H]2[C@H](CC[C@]3(C)[C@@H]([C@H](C)CCOC(=O)NS(=O)(=O)c4ccccc4)CC[C@@H]23)[C@@]2(C)CC[C@@H](O)C[C@@H]12
3. CC[C@H]1[C@@H](O)[C@@H]2[C@H](CC[C@]3(C)[C@@H]([C@H](C)CCOC(=O)NS(=O)(=O)c4ccc(OC)cc4)CC[C@@H]23)[C@@]2(C)CC[C@@H](O)C[C@@H]12
4. CC[C@H]1[C@@H](O)[C@@H]2[C@H](CC[C@]3(C)[C@@H]([C@H](C)CCOC(=O)NC4CCS(=O)(=O)CC4)CC[C@@H]23)[C@@]2(C)CC[C@@H](O)C[C@@H]12

0.1 to 1 µM
< 0.1 µM
< 0.1 µM
0.1 to 1 µM

List EC50 for every entry below, keeping the order given.
1. CC[C@H]1[C@@H](O)[C@@H]2[C@H](CC[C@]3(C)[C@@H]([C@H](C)COC(=O)NS(=O)(=O)C4CCCCC4)CC[C@@H]23)[C@@]2(C)CC[C@@H](O)C[C@@H]12
2. CC[C@H]1[C@@H](O)[C@@H]2[C@H](CC[C@]3(C)[C@@H]([C@H](C)CCOC(=O)NC4CCCCC4)CC[C@@H]23)[C@@]2(C)CC[C@@H](O)C[C@@H]12

0.1 to 1 µM
0.1 to 1 µM
